The entries below come with measured % cells E6 tet+/CD8+ quadrant values attached.
Target: T1, HLA-A2/E6(29-38) tetramer (human; HPV 16)
T1 construct: also called E6(29-38) peptide-MHC tetramer; E6 tet
Experiment: flow cytometry, tetramer + anti-CD8; transfected mix of CD8- and CD8+ Jurkat-derived cells;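 note: CD4+ and CD4+/CD8+ cell mixtures transiently given TCR plasmids, analysed 48 h post-transfection by flow cytometry with E6(29-38)–HLA-A*02:01 tetramer plus anti-CD8 antibody co-stain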
Put your answer as a value accompanied by its unit after it.

TCR 24 (codon-optimized, cysteine-modified) (TCR, V domains shown) V domain 1: AQKITQTQPGMFVQEKEAVTLDCTYDTSDQSYGLFWYKQPSSGEMIFLIYQGSYDEQNATEGRYSLNFQKARKSANLVISASQLGDSAMYFCAMREGRGDSWGKLQFGAGTQVVVTP V domain 2: DVKVTQSSRYLVKRTGEKVFLECVQDMDHENMFWYRQDPGLGLRLIYFSYDVKMKEKGDIPEGYSVSREKKERFSLILESASTNQTSMYLCASSPFGRGSYEQYFGPGTRLTVTE	55%

Reported % cells E6 tet+/CD8+ quadrant for TCR 26 (codon-optimized, cysteine-modified) (TCR, V domains shown) V domain 1: AQKITQTQPGMFVQEKEAVTLDCTYDTSDQSYGLFWYKQPSSGEMIFLIYQGSYDEQNATEGRYSLNFQKARKSANLVISASQLGDSAMYFCAMRDARNNDMRFGAGTRLTVKP V domain 2: NAGVTQTPKFRVLKTGQSMTLLCAQDMNHEYMYWYRQDPGMGLRLIHYSVGEGTTAKGEVPDGYNVSRLKKQNFLLGLESAAPSQTSVYFCASSYYASGRNYEQYFGPGTRLTVTE was 42.3%

Entry source: patent US20210284709A1
